Data credit: ChEMBL document CHEMBL3988442

target: Chromo domain-containing protein 1 (Saccharomyces cerevisiae (strain ATCC 204508 / S288c) (Baker's yeast)) (UniProt P32657); experiment: ScCHD-1 Enzyme Inhibition Assay; assay type: functional; parameters: scale not given: in the data most compounds retested in dose-response had high values; details: 30 µM
Sequence (P32657 whole entry, the tested form may be a part): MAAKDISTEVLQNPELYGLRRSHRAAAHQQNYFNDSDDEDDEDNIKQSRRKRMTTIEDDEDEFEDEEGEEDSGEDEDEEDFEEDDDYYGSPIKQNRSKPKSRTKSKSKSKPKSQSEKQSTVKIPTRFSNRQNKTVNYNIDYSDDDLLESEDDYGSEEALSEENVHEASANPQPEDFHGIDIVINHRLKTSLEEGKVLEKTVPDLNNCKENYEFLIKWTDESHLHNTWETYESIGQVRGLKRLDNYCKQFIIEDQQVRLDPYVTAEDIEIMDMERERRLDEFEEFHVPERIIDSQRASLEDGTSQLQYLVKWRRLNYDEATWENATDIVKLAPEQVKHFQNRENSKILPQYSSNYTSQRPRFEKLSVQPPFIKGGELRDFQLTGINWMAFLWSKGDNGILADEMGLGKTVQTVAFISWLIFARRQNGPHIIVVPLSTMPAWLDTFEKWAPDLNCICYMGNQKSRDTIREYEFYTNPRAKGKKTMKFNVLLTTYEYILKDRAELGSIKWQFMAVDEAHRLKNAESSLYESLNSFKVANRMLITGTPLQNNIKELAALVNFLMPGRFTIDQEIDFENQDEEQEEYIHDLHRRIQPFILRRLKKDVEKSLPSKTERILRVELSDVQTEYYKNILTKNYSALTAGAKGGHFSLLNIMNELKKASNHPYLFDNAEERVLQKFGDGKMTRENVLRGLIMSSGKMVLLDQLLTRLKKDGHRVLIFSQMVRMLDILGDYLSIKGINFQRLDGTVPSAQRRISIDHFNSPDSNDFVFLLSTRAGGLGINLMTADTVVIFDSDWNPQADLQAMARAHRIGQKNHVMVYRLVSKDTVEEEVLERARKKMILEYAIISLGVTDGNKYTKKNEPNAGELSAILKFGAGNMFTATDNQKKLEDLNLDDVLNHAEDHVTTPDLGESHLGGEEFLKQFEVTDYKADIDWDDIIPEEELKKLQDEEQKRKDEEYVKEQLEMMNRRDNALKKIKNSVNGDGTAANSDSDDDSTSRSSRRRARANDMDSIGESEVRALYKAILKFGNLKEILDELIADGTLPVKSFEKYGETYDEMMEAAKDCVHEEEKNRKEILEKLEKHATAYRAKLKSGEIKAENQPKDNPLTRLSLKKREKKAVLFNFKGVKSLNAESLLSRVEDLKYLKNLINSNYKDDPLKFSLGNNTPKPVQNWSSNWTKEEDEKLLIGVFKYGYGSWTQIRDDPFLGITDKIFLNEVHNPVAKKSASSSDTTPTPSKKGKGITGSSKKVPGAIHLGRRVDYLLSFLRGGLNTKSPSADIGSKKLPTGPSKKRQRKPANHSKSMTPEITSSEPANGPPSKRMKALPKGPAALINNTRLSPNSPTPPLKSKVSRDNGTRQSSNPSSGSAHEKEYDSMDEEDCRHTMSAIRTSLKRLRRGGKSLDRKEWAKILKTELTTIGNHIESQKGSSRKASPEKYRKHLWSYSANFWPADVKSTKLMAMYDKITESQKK
Recorded endpoint: Percent Effect (%)
// units = %; emit number, no label

Molecule	Observed value
CSCC(=O)N1C[C@H]2CC[C@@H]1CN(Cc1ccccc1)C2	-6.22
Cn1cc(N2CC3(COCCN(Cc4ccsc4)C3)OCC2=O)cn1 (stereo unspecified)	2.44
Cc1nc(CC(=O)N2CCCCC2c2ccn3ccnc3n2)cs1 (stereo unspecified)	-15.1
CC(C)c1nc(CN(C)C2CCN(Cc3nc(C4CC4)no3)C2)no1 (stereo unspecified)	-6.06
Cc1cc(C2CCCN2CCCS(=O)(=O)c2ccccc2)no1 (stereo unspecified)	-1.93

Attention now shifts to the item below.
Query: Entry under review: CC(C)[C@H](NC(=O)NC1CCS(=O)(=O)C1)C(=O)NCc1ccccc1Cl (stereo partly specified) . Reported Percent Effect?
Response: 1.25

* * *

target: Protein translocase subunit SecA (Escherichia coli (strain K12)); test: Assay to Identify E. coli SecA ATPase Inhibitors; format: functional; set-up: scale not given: direction of the effect not stated beside the values; conditions: 30 µM
Measured potencies and affinities stand elsewhere.
Recorded endpoint: Percent Effect (%)
The figure you give is taken to be in %; do not add the unit.

Compound	Units text	Observed value
CC(C)NC(=O)[C@@H](NC(=O)N1CCN(c2ccc(Cl)cc2)CC1)C(C)C	%	-9.49
Cc1cnc(CN2CCOC(CNc3cccnn3)C2)cn1 (stereo not given)	%	0.476
CC(O)CNC(=O)NCc1ccc(N2CCNC(=O)C2)cc1 (stereo not given)	%	-3.56
COCC(C)N(C)C(=O)c1nc(S(C)(=O)=O)n2ccccc12 (stereo not given)	%	-8.81
O=C(Cn1cc(-c2ccccc2)ncc1=O)Nc1nnc[nH]1	%	-1.82

Query: Entry COCCn1cc(C(=O)N2CCCC2c2cccc(F)c2)ccc1=O (stereo not given) has what Percent Effect?
Response: 1.54

Query: Record request: Percent Effect value, item O=C1CCCN1Cc1nnc2n1CCN(Cc1ccoc1)CC2
Response: -6.7

Query: Dear colleague, I am looking for the recorded Percent Effect of the following compound: O=C(NCCc1ccccc1)C1CCCN(c2ccc3nncn3n2)C1 (stereo not given)
Response: -3.44

Query: Given CN(Cc1ccsc1)C(=O)c1cccc(NS(C)(=O)=O)c1 , state its recorded Percent Effect.
Response: -5.08

Query: Report Percent Effect for CC(C)N1CCC(CNCc2c[nH]nc2C(C)(C)C)C1 (stereo not given) please.
Response: -2.43

Query: Requested read-out: Percent Effect. Entry: CC(C)CNC(=O)Nc1ccc(CN2CCOC2=O)cc1
Response: -6.23

Query: What value of Percent Effect has been recorded for this entry: CC(=O)N1CCC(C(=O)NCCN2CCCCC2)CC1
Response: -1.49

Query: Quick one: Percent Effect for O=C(c1ccc(Br)o1)N1CCCCC1Cn1cccn1 (stereo not given) ?
Response: -1.08

Query: Give its Percent Effect value. Item: CC(C)(C)c1n[nH]c(C2CN(C(=O)c3csnn3)CCO2)n1 (stereo not given)
Response: -8.03

Query: Reported Percent Effect for COc1ccc(C)cc1CN1CCCC1Cn1nc(C)nc1C (stereo not given) : what is it?
Response: -5.51

Query: Sample CC(C(=O)N1CCCC1)N1CCC(c2nccn2CC2CCC2)CC1 (stereo not given) — what was its Percent Effect?
Response: -7.94

* * *

target: Proteasome subunit beta (Trypanosoma cruzi) (UniProt O96673); assay: Trypanosoma cruzi proteasome chymotrypsin-like activity (TcProtChymo) assay.; type: functional; parameters: scale not given: in the data most compounds retested in dose-response had high values; details: 9.37 µM
Sequence (O96673 as listed by the source): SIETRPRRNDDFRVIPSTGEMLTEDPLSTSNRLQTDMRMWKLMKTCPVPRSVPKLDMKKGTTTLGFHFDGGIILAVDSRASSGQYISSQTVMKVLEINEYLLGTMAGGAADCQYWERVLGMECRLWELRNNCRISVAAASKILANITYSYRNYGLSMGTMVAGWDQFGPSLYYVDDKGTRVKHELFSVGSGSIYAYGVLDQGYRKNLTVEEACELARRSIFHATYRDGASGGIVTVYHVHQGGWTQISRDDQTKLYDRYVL
// reported Percent Effect for each item listed
The reply should contain only the number, in %.

Compound	Tested target	Percent Effect [%]
COCc1ccc(CN2CCC(O)(Cn3ccc4ncccc43)CC2)o1	Proteasome subunit beta (Trypanosoma cruzi) (UniProt O96673)	9.07
Cc1ncc2c(n1)CN(CCCc1nc3ccccc3o1)CC2	Proteasome subunit beta (Trypanosoma cruzi) (UniProt O96673)	8.91
CCOCC1CN(Cc2cnn(C)c2)Cc2nn(C)cc21 (stereo not drawn)	Proteasome subunit beta (Trypanosoma cruzi) (UniProt O96673)	10.2
Cc1ccc(CNC2CCN(CCc3ccncc3)CC2)cc1C	Proteasome subunit beta (Trypanosoma cruzi) (UniProt O96673)	5.5

Query: Bench note: what Percent Effect did COc1ccccc1CN1CC[C@H]2C[C@@H](C(=O)N3CCCC3)O[C@H]2C1 show?
Response: 8.88

Query: What value of Percent Effect has been reported for the following compound? Cc1cnc(CN(C)C2CCN(CCn3cc(C#N)cn3)C2)o1 (stereo not drawn)
Response: 21.4

* * *

species: Homo sapiens; test: To identify inhibition of the IFN signalling (Jak-Stat) pathway via expression of an eGFP reporter gene under the control of an IFN-stimulated response element (ISRE) containing MxA promoter.; assay type: functional; set-up: scale not given: direction of the effect not stated beside the values; details: 30 µM
Recorded endpoint: Percent Effect (%)
Answer with a number only, understood to be in %.

Molecule	Units text	Percent Effect
CC(C)c1nc(C(=O)N2CCCC(n3cncn3)C2)c[nH]1 (configuration not stated)	%	20.5
COc1ccccc1CC1CCCN(CC(=O)N2CCOCC2)C1 (configuration not stated)	%	2.85
NC(=O)c1cc(C2CCCN(CCCOc3ccccc3)C2)n[nH]1 (configuration not stated)	%	0.734
Cc1cnc(C(=O)N2C[C@@H]3CN(CC4CCCC4)CCO[C@@H]3C2)cn1	%	11
CC(C)CCC(=O)NC(C)c1nnc2n1CCCCC2 (configuration not stated)	%	-5.87
Cc1nn(C)c(C)c1C1CCCN1Cc1cccc(C(N)=O)c1 (configuration not stated)	%	8.29
CNC(=O)CN1CCCC12CCN(C(=O)c1ccsc1)CC2	%	1.81
CN(C)c1ncccc1CNS(=O)(=O)c1ccccc1F	%	19.8
CC1CCN(CCNC(=O)c2cncnc2C(C)C)CC1	%	0.616
Cn1cc(CN2CCCN(C(=O)c3cn4ccccc4n3)CC2)cn1	%	13.6

Query: May I ask what Percent Effect has been recorded for CC(C)c1noc(CN2CCC3(CCCO3)CCC2=O)n1 (configuration not stated) ?
Response: 25.6

Query: Any idea what Percent Effect was measured for O=C(O)c1nnn(Cc2cccc(C(F)(F)F)c2)c1-c1cccnc1 ?
Response: 4

* * *

Known Percent Effect of a selection of compounds
species: Homo sapiens; experiment: To identify inhibition of the IFN signalling (Jak-Stat) pathway via expression of an eGFP reporter gene under the control of an IFN-stimulated response element (ISRE) containing MxA promoter.; format: functional; set-up: scale not given: direction of the effect not stated beside the values; conditions: 30 µM
Kindly answer with a numeric value in %, unit omitted.

Example entries and their recorded answers appear below.
Compound	Units text	Observed value
CCC(=O)N1CCC(Cc2ccccc2-c2ccccc2)(C(N)=O)C1 (centres undefined)	%	16.6
CN(Cc1cnn(C)c1)C(=O)NC1CCC(O)CC1 (centres undefined)	%	-3.51
CC(O)CN1CCN(C(=O)c2cn(-c3ccccc3Cl)nn2)CC1 (centres undefined)	%	-2.08
COCC(O)CNC(=O)c1cnc(-c2ccccc2)nc1O (centres undefined)	%	13.5
COc1cccc2c1ccn2CCNC(=O)C(C)C	%	26.9
Cc1cnn(C2CN(Cc3nc(-c4ccco4)no3)C2)c1	%	10.2
CCOCC(O)CN1CCN(C(=O)c2ccccc2Cl)CC1 (centres undefined)	%	-0.893
Cc1ccsc1C(=O)N1C[C@@H]2CN(Cc3ccoc3)CCO[C@@H]2C1	%	-6.4
Cc1csc(N2CCN(CCc3ccccn3)CC2C)n1 (centres undefined)	%	17.9
c1csc(CN2CCOCC3(CCN(C4CCOCC4)C3)C2)n1 (centres undefined)	%	-1.84

Query: Reported Percent Effect, compound Cc1cccc(NC2CCN(C(=O)Nc3cc(C)on3)CC2)n1 : ____
Response: -22.6

Query: Param item = Cn1cnnc1C1CCCN(C(=O)NCCOc2ccccc2)C1 (centres undefined) ; retrieve measured Percent Effect.
Response: 16.1

Query: Which measured Percent Effect value corresponds to COCC(=O)N1CCC(c2nccn2CC2CC2)CC1 ?
Response: -2.14

Query: Value lookup for Percent Effect; key = Cc1oncc1C(=O)NCc1cc(=O)n2c(n1)CN(C)CCC2
Response: 12.2

Query: Item O=C(NCCn1ccc(-c2ccncc2)n1)c1ccncc1 has what recorded Percent Effect?
Response: 2.43

Query: Would you mind telling me what Percent Effect value was observed for COCCN1CC[C@@H]2O[C@@H](COCC(=O)N3CCCC3)CC[C@@H]21 ?
Response: -31.2

Query: Looking for the measured Percent Effect of O=C(c1cn(-c2cc(N3CCSCC3)ncn2)cn1)N1CCSCC1 , can you help?
Response: -3.38

Query: Returns the measured Percent Effect for the input compound. Input: Cn1cnc2c1CCN(CCS(=O)(=O)c1ccccc1)C2
Response: 20.9

Query: # query: Percent Effect of entry CS(=O)(=O)N1CCc2nc(NC(=O)Nc3c(F)cccc3F)sc2C1
Response: 1.79

Query: Reported Percent Effect, compound Cc1c(Br)cccc1C(=O)NC(C)CN1CCCC1=O (centres undefined) : ____
Response: 10
